Origin of measurements: ChEMBL document CHEMBL5506055

Reported IC50 values for a set of molecules
- Subject of test: NACHT, LRR and PYD domains-containing protein 3 (Mus musculus, UniProt Q8R4B8)
- Sequence (Q8R4B8 whole entry, the tested form may be a part): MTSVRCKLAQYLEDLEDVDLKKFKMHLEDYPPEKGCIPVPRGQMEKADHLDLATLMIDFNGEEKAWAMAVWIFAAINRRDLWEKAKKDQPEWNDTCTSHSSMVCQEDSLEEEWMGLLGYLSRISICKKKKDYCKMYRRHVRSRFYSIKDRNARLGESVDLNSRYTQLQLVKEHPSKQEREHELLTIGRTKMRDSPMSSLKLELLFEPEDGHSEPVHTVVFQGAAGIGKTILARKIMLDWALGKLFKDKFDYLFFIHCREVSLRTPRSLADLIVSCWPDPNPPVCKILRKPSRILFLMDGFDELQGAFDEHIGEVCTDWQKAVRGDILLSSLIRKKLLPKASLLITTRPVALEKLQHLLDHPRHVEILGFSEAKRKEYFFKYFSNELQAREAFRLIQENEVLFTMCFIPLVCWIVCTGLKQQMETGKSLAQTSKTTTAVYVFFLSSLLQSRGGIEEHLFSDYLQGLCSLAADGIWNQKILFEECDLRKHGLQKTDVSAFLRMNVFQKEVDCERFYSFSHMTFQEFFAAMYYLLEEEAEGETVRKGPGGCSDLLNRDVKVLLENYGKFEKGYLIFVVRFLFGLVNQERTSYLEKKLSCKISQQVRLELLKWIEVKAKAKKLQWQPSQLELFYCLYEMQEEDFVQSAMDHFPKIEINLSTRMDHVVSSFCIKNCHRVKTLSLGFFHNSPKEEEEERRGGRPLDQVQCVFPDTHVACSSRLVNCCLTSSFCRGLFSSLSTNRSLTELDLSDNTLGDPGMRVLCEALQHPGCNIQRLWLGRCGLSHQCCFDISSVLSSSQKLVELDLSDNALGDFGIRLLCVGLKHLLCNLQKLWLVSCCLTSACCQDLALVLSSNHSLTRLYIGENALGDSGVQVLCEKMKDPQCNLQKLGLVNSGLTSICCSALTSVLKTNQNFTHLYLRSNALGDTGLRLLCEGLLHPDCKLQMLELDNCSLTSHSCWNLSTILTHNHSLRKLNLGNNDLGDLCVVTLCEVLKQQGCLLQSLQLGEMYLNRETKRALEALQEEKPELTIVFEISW
- Method: Inhibition of NLRP3 inflammasome activation in LPS/ATP-induced C57BL/6 mouse BMDMs assessed as reduction in IL-1beta secretion preincubated with LPS for 4 hrs followed by compound addition for 30 mins and further stimulated with ATP for 30 mins by ELISA
- Assay type: cell-based, BMDM

Molecule: C=C1C(=O)[C@]23[C@H](O)[C@H]1CC[C@H]2[C@]12C=CCC(C)(C)[C@H]1[C@H](O)[C@@]3(OCCC(=O)N(C)C)OC2
Subject of test: NACHT, LRR and PYD domains-containing protein 3 (Mus musculus, UniProt Q8R4B8)
Unit info: nM
IC50: 103
//
Molecule: C=C1C(=O)[C@]23[C@H](O)[C@H]1CC[C@H]2[C@]12C=CCC(C)(C)[C@H]1[C@H](O)[C@@]3(OCc1cncs1)OC2
Subject of test: NACHT, LRR and PYD domains-containing protein 3 (Mus musculus, UniProt Q8R4B8)
Unit info: nM
IC50: 50.2
//
Molecule: C=C1C(=O)[C@]23[C@H](O)[C@H]1CC[C@H]2[C@]12C=CCC(C)(C)[C@H]1[C@H](O)[C@@]3(OCCC(=O)NC(C)C)OC2
Subject of test: NACHT, LRR and PYD domains-containing protein 3 (Mus musculus, UniProt Q8R4B8)
Unit info: nM
IC50: 90.6
//
Molecule: C=C1C(=O)[C@]23[C@H](O)[C@H]1CC[C@H]2[C@]12C=CCC(C)(C)[C@H]1[C@H](O)C3(OCc1cccnc1)OC2 (single isomer, unassigned)
Subject of test: NACHT, LRR and PYD domains-containing protein 3 (Mus musculus, UniProt Q8R4B8)
Unit info: nM
IC50: 232
//
Molecule: C=C1C(=O)[C@]23[C@H](O)[C@H]1CC[C@H]2[C@]12C=CCC(C)(C)[C@H]1[C@H](O)[C@@]3(OCCC(=O)NC1CC1)OC2
Subject of test: NACHT, LRR and PYD domains-containing protein 3 (Mus musculus, UniProt Q8R4B8)
Unit info: nM
IC50: 242
//
Molecule: C=C1C(=O)[C@]23[C@H](O)[C@H]1CC[C@H]2[C@]12C=CCC(C)(C)[C@H]1[C@H](O)[C@@]3(OCCC(=O)N1CCCCC1)OC2
Subject of test: NACHT, LRR and PYD domains-containing protein 3 (Mus musculus, UniProt Q8R4B8)
Unit info: nM
IC50: 147

====

- Subject of test: NACHT, LRR and PYD domains-containing protein 3 (Mus musculus) (UniProt Q8R4B8)
- Sequence (Q8R4B8 whole entry, the tested form may be a part): as above
- Method: Inhibition of NLRP3 inflammasome activation in LPS/ATP-induced C57BL/6 mouse BMDMs assessed as reduction in IL-1beta secretion at 200 nM preincubated with LPS for 4 hrs followed by compound addition for 30 mins and further stimulated with ATP for 30 mins by ELISA relative to control
- Type: cell-based
- Condition set: BMDM, time 1.0 hrs
Reported inhibition values for a set of molecules

Smiles record: C=C1C(=O)[C@]23[C@H](O)[C@H]1CC[C@H]2[C@]12C=CCC(C)(C)[C@H]1[C@H](O)[C@@]3(OCCC(=O)NCC(C)C)OC2
Subject of test: NACHT, LRR and PYD domains-containing protein 3 (Mus musculus) (UniProt Q8R4B8)
inhibition / %: 59.9

Smiles record: C=C1C(=O)[C@]23[C@H](O)[C@H]1CC[C@H]2[C@]12C=CCC(C)(C)[C@H]1[C@H](O)[C@@]3(OCC(=O)O)OC2
Subject of test: NACHT, LRR and PYD domains-containing protein 3 (Mus musculus) (UniProt Q8R4B8)
inhibition / %: 25.5

Smiles record: C=C1C(=O)[C@]23[C@H](O)[C@H]1CC[C@H]2[C@]12C=CCC(C)(C)[C@H]1[C@H](O)[C@@]3(OCCCc1ccccc1)OC2
Subject of test: NACHT, LRR and PYD domains-containing protein 3 (Mus musculus) (UniProt Q8R4B8)
inhibition / %: 48.4

Smiles record: C=C1C(=O)[C@]23[C@H](O)[C@H]1CC[C@H]2[C@]12C=CCC(C)(C)[C@H]1[C@H](O)[C@@]3(OCCC(=O)N1CCOCC1)OC2
Subject of test: NACHT, LRR and PYD domains-containing protein 3 (Mus musculus) (UniProt Q8R4B8)
inhibition / %: 83.9

Smiles record: C=C1C(=O)[C@]23[C@H](O)[C@H]1CC[C@H]2[C@]12C=CCC(C)(C)[C@H]1[C@H](O)[C@@]3(OCCC(=O)NC1CCCCC1)OC2
Subject of test: NACHT, LRR and PYD domains-containing protein 3 (Mus musculus) (UniProt Q8R4B8)
inhibition / %: 40.6

Smiles record: C=C1C(=O)[C@]23[C@H](OCc4ccc(C#N)cc4)[C@H]1CC[C@H]2[C@]12C=CCC(C)(C)[C@H]1[C@H](O)[C@@]3(O)OC2
Subject of test: NACHT, LRR and PYD domains-containing protein 3 (Mus musculus) (UniProt Q8R4B8)
inhibition / %: 69.6

Smiles record: C=C1C(=O)[C@]23[C@H](O)[C@H]1CC[C@H]2[C@]12C=CCC(C)(C)[C@H]1[C@H](O)[C@@]3(OCCC(=O)NC1CCCC1)OC2
Subject of test: NACHT, LRR and PYD domains-containing protein 3 (Mus musculus) (UniProt Q8R4B8)
inhibition / %: 56

Smiles record: C=C1C(=O)[C@]23[C@H](O)[C@H]1CC[C@H]2[C@]12C=CCC(C)(C)[C@H]1[C@H](O)[C@@]3(OCC)OC2
Subject of test: NACHT, LRR and PYD domains-containing protein 3 (Mus musculus) (UniProt Q8R4B8)
inhibition / %: 46.5

Smiles record: C=C1C(=O)[C@]23[C@H](O)[C@H]1CC[C@H]2[C@]12C=CCC(C)(C)[C@H]1[C@H](O)[C@@]3(OCc1cncs1)OC2
Subject of test: NACHT, LRR and PYD domains-containing protein 3 (Mus musculus) (UniProt Q8R4B8)
inhibition / %: 93.9

Smiles record: C=C1C(=O)[C@]23[C@H](OCc4ccccc4)[C@H]1CC[C@H]2[C@]12C=CCC(C)(C)[C@H]1[C@H](O)[C@@]3(O)OC2
Subject of test: NACHT, LRR and PYD domains-containing protein 3 (Mus musculus) (UniProt Q8R4B8)
inhibition / %: 68

Smiles record: C=C1C(=O)[C@]23[C@H](O)[C@H]1CC[C@H]2[C@]12C=CCC(C)(C)[C@H]1[C@H](O)[C@@]3(OCc1ccc3ccccc3c1)OC2
Subject of test: NACHT, LRR and PYD domains-containing protein 3 (Mus musculus) (UniProt Q8R4B8)
inhibition / %: 47.5
